system: HL-60; experiment: Induction of apoptosis in human HL60 cells after 48 hrs by Annexin V-FITC staining based flow cytometry; type: functional, cell-based; conditions: HL-60, 48 h
experimental.endpoint: pIC50
Answer as the number alone; pIC50 is minus log10 of concentration in mol/L.

query: # get_value(readout='pIC50', item= O=C(O)c1cc2ccccc2n1S(=O)(=O)c1ccc(OCc2cccc(Cl)c2)cc1 )
result: 4.20
